# tgt: Man(b1-4)GlcNAc
# measurement-description: glycan array binding signal (z-score within array); higher = stronger binding
# condition-context: glycan notation: IUPAC condensed, linker removed
Many of the other results were omitted from the sample, so the strongest signals are more common in it than they were.
Listed next: entries and their corresponding glycan array binding signal (z-score).
Please give the numeric answer without any surrounding text.

Below, 3 binders whose answers are already recorded.
MLTim-4 (Mus musculus), Q6U7R4 (protein) MSKGLLLLWLVTELWWLYLTPAASEDTIIGFLGQPVTLPCHYLSWSQSRNSMCWGKGSCPNSKCNAELLRTDGTRIISRKSTKYTLLGKVQFGEVSLTISNTNRGDSGVYCCRIEVPGWFNDVKKNVRLELRRAT    1.06
FGFR2-Fc (protein) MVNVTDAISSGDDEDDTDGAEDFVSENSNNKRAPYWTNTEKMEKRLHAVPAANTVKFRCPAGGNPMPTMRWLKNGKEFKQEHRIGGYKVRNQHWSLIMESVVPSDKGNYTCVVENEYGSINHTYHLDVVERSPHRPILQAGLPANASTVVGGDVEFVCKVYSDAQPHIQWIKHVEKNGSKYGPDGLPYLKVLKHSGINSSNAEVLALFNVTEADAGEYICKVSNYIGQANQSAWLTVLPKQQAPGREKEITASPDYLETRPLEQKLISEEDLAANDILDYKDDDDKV    0.038
NPA (Narcissus pseudonarcissus), C0HM45 (protein) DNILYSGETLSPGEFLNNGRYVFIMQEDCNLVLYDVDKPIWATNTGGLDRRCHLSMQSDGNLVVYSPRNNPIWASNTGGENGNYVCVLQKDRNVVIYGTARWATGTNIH    -0.151

Turning to the following binder.
Query: Entry under review: TbCVNHOb (Tuber borchii) (protein) GSHIGPYMSFYASSEDVRTIEEGGRTWLVGRARRADGSWQDIKLDLDNIIGNRDGHLTWGEQNFTQSASDIRFNFEGGSNVPVLRAKLRNAAGGEQESDLNLGERLTNNNGDLVFN . Reported glycan array binding signal (z-score)?
Result: 0.106
